Tested on: HS 578T breast
ASSAY_PROTOCOL: NCI-60 one-dose screen, 48 h
CONDITION_INFO: 10 µM unless noted
About 83,000 compounds went through this panel and 20% of them were active in at least one assay; those are over-represented in the sample as a whole. Active and inactive are the calls of the source. How the source made its calls: active means growth percent below 10; inactive means the rest.
Possible outcomes: active, inactive

> print(dat)
                                    compound  group.label
 1   NC(=O)NCCCC(N)C(=O)O (stereo not drawn)     inactive
 2  CC1=C/C(O)CC(=O)Cc2nc(co2)C(=O)N2CCC=C2C(=O)OC(C(C)C)C(C)/C=C\C(=O)NC/C=C\1 (stereo not drawn)     inactive
 3                          Nc1cc(N)c(N)cc1N     inactive
 4                  c1ccc(-c2nc3ccccc3s2)cc1     inactive
 5                  c1ccc(CNCCNCc2ccccc2)cc1     inactive
 6                  C/C(=C\c1ccccc1)c1ccccn1     inactive
 7  O=C1c2c(O)ccc(O)c2C(=O)c2c(NCCNCCO)ccc(NCCNCCO)c21       active
 8               CCCCOC(=O)/C=C\C(=O)NC(N)=O     inactive
 9                O=C(/C=C/c1ccccc1)c1ccccc1     inactive
10  CN(C)CC1CCCCCC(CN(C)C)C1=O (stereo not drawn)     inactive
11               c1ccc2c(c1)OC1OC2Oc2ccccc21     inactive
12  CC(=O)OC(C)C(=O)NCC(C)O (stereo not drawn)     inactive
13                        CCCCCCCCCCNC(=O)CI     inactive
